target.or.test.system: Aldo-keto reductase family 1 member C4 (Homo sapiens)
test.summary: AKR1C4 binders by thermal shift, biophysical, DSF, SYPRO orange, with or without NADPH (AID 381)
condition.notes: recombinant AKR1C4, DSF thermal shift, at 10 µM, buffer 10 mM HEPES, pH 7.5, NaCl 150 mM, protein 2 µM, stronger effect = higher value
Documented Tm shift across a set of compounds
assay.endpoint: Tm shift

> print(dat)
                                   compound       result
1         O=c1cc(-c2ccccc2)oc2cc(O)cc(O)c12  2.3 Celsius
2  CC1CC(C)(C)NC(=S)N1CCCC(=O)N1CCN(C(c2ccccc2)c2ccc(Cl)cc2)CC1 (stereo not drawn)  2.4 Celsius
3  CC1(C)[C@@H](O)CC[C@]2(C)[C@H]3C(=O)C=C4[C@H]5C[C@@](C)(C(=O)O)CC[C@]5(C)CC[C@@]4(C)[C@]3(C)CC[C@@H]12  5.2 Celsius

* * *

Each item that follows carries a reported Tm shift.
target.or.test.system: Aldo-keto reductase family 1 member C4 (Homo sapiens)
test.summary: AKR1C4 binders by thermal shift, biophysical, DSF, SYPRO orange, with or without NADPH (AID 381)
condition.notes: recombinant AKR1C4, DSF thermal shift, at 10 µM, buffer 10 mM HEPES, pH 7.5, NaCl 150 mM, protein 2 µM, stronger effect = higher value
assay.endpoint: Tm shift

> print(dat)
                                   molecule                     target.or.test.system       result
1  CC1(C)[C@@H](O)CC[C@]2(C)[C@H]3C(=O)C=C4[C@@H]5C[C@@](C)(C(=O)O)CC[C@]5(C)CC[C@@]4(C)[C@]3(C)CC[C@@H]12  Aldo-keto reductase family 1 member C4 (Homo sapiens)    5 Celsius
2  O=C1C(=O)C(c2ccc(O)cc2O)Oc2cc(O)cc(O)c21 (centres undefined)  Aldo-keto reductase family 1 member C4 (Homo sapiens)  2.1 Celsius
3      O=c1cc(-c2ccc(O)cc2)oc2cc(O)cc(O)c12  Aldo-keto reductase family 1 member C4 (Homo sapiens)  2.2 Celsius
4  CC1(C)[C@@H](OC(=O)CCC(=O)O)CC[C@]2(C)[C@H]3C(=O)C=C4[C@@H]5C[C@@](C)(C(=O)O)CC[C@]5(C)CC[C@@]4(C)[C@]3(C)CC[C@@H]12  Aldo-keto reductase family 1 member C4 (Homo sapiens)  7.3 Celsius

* * *

target.or.test.system: Aldo-keto reductase family 1 member C4 (Homo sapiens) (UniProt P17516)
Sequence (P17516 whole entry, looked up): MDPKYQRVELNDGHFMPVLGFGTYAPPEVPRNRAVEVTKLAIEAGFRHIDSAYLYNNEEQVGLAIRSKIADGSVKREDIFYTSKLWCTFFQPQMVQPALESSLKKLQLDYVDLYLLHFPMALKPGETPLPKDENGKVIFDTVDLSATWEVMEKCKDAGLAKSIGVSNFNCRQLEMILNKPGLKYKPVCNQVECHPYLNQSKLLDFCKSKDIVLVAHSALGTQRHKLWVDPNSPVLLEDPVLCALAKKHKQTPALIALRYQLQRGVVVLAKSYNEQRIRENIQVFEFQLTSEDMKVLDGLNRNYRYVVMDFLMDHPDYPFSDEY
test.summary: AKR1C4 binders by thermal shift, biophysical, DSF, SYPRO orange, with or without NADPH (AID 381)
condition.notes: recombinant AKR1C4, DSF thermal shift, at 10 µM, buffer 10 mM HEPES, pH 7.5, NaCl 150 mM, NADPH 20 µM, protein 2 µM, stronger effect = higher value
assay.endpoint: Tm shift

> print(dat)
                                 smiles.str  assay.endpoint       result
1              Oc1cc(Cl)ccc1Oc1ccc(Cl)cc1Cl        Tm shift  2.3 Celsius
2  C[C@]12CC[C@H]3[C@@H](CCC4=CC(=O)CC[C@@]43C)[C@@H]1CC[C@@H]2O        Tm shift  5.3 Celsius
3  C[C@]12CC[C@H]3C(=CCc4cc(O)ccc43)[C@@H]1CCC2=O        Tm shift  4.5 Celsius
4  CC(=O)[C@H]1CC[C@H]2[C@@H]3CCC4=CC(=O)CC[C@]4(C)[C@H]3CC[C@]12C        Tm shift  4.5 Celsius
